Data origin, for the record: patent US20240182556A1

Molecular target: T1, exon 6 peptide (ASSLRNDSSSSNRKAKNPPGDS), coated on ELISA plate (not fully specified)
T1 construct: No biotin is mentioned for the ELISA coat; also called a peptide of SCF248
T1 peptide: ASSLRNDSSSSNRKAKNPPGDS
Test: direct ELISA on coated peptide, IgG4, read at 450 nm
EXPERIMENTAL ENDPOINT: absorbance at 1 ng/mL antibody (absorbance)

>>> measured_result("A84P mutant expressed as full length IgG4 antibody (antibody, V domains shown, Full length IgG4) VH: QVQLVQSGAELKKPGSSVKISCKSSGYAFSSQWMNWVKQRPGQGLEWIGQIYPEDGDTHMNGKFKGKATLTADKSTSTAYMELSSLTSEDSAVYFCSSSNWVGSYWGQGTLVTVSS VL: DVVMTQSPLSLPVTLGQPASISCKSSQSLLEEDGNTYLNWLQQRPGQSPRRLIYLVDRLDIGVPDRFSGSGSGTDFTLKISRVEAEDVGVYYCWQGTDLPQTFGGGTKVEIK")
0.56
>>> measured_result("A104P mutant expressed as full length IgG4 antibody (antibody, V domains shown, Full length IgG4) VH: QVQLVQSGAELKKPGSSVKISCKSSGYAFSSQWMNWVKQRPGQGLEWIGQIYPEDGDTHYNGKFKGKATLTADKSTSTAYMELSSLTSEDSAVYFCSSSNWVGSYWGQGTLVTVSS VL: DVVMTQSPLSLPVTLGQPASISCKSSQSLLEEDGNTYLNWLQQRPGQSPRRLIYLVDRLDSGVPDRFSGSGSGTDFTLKISRVEAEDVGVYYCWQGTDLPQTFGGGTKVEIK")
1.02
